assay details: Biodistribution in B16/F1 melanoma-bearing C57 mice
Format: in vivo
condition set: female, C57, mouse, liver, iv, 0.037 MBq, total radioactivity, 0.5 h post-injection; read-out: Liver uptake
readout kind: tissue uptake at 0.5 h (%ID/g)
Report as a plain number; the unit %ID/g is understood.

Prompt: GET /values?readout=tissue uptake at 0.5 h&item= CCCC[C@H](NC(=O)CN1CCN(CC(=O)O)CCN(CC(=O)O)CCN(CC(=O)O)CC1)C(=O)N[C@H]1CC(=O)NCCCC[C@@H](C(N)=O)NC(=O)[C@H](Cc2c[nH]c3ccccc23)NC(=O)[C@H](CCCNC(=N)N)NC(=O)[C@@H](Cc2ccccc2)NC(=O)[C@H](Cc2c[nH]cn2)NC1=O [^111In-DOTA-Nle-CycMSHhex, metal not drawn]
Completion: 2.75

###

assay details: Biodistribution in B16/F1 melanoma-bearing C57 mice
Type: in vivo
condition set: female, C57, mouse, tumor, iv, 0.037 MBq, total radioactivity, 4 h post-injection; read-out: Tumor uptake
readout kind: tissue uptake at 4 h (%ID/g)
Number only, in %ID/g; omit the unit.

Prompt: Requested field: tissue uptake at 4 h. Item: CCCC[C@H](NC(=O)CN1CCN(CC(=O)O)CCN(CC(=O)O)CCN(CC(=O)O)CC1)C(=O)N[C@H]1CC(=O)NCCCC[C@@H](C(N)=O)NC(=O)[C@H](Cc2c[nH]c3ccccc23)NC(=O)[C@H](CCCNC(=N)N)NC(=O)[C@@H](Cc2ccccc2)NC(=O)[C@H](Cc2c[nH]cn2)NC1=O [^111In-DOTA-Nle-CycMSHhex, metal not drawn]
Completion: 17

###

assay details: Biodistribution in B16/F1 melanoma-bearing C57 mice
Format: in vivo
condition set: female, C57, mouse, pancreas, iv, total radioactivity, 2 h post-injection, L-lysine co-injection; read-out: Pancreas uptake
readout kind: tissue uptake at 2 h

Prompt: Quick one: tissue uptake at 2 h for CCCC[C@H](NC(=O)CN1CCN(CC(=O)O)CCN(CC(=O)O)CCN(CC(=O)O)CC1)C(=O)N[C@H]1CC(=O)NCCCC[C@@H](C(N)=O)NC(=O)[C@H](Cc2c[nH]c3ccccc23)NC(=O)[C@H](CCCNC(=N)N)NC(=O)[C@@H](Cc2ccccc2)NC(=O)[C@H](Cc2c[nH]cn2)NC1=O [^111In-DOTA-Nle-CycMSHhex, metal not drawn] ?
Completion: 0.21 %ID/g

###

assay details: Biodistribution in B16/F1 melanoma-bearing C57 mice
Assay type: in vivo
condition set: female, C57, mouse, muscle, iv, 0.037 MBq, total radioactivity, 2 h post-injection; read-out: Muscle uptake
readout kind: tissue uptake at 2 h (%ID/g)
The reply should be a number in %ID/g, with the unit left off.

Prompt: Quick one: tissue uptake at 2 h for CCCC[C@H](NC(=O)CN1CCN(CC(=O)O)CCN(CC(=O)O)CCN(CC(=O)O)CC1)C(=O)N[C@H]1CC(=O)NCCCC[C@@H](C(N)=O)NC(=O)[C@H](Cc2c[nH]c3ccccc23)NC(=O)[C@H](CCCNC(=N)N)NC(=O)[C@@H](Cc2ccccc2)NC(=O)[C@H](Cc2c[nH]cn2)NC1=O [^111In-DOTA-Nle-CycMSHhex, metal not drawn] ?
Completion: 0.15

###

assay details: Biodistribution in B16/F1 melanoma-bearing C57 mice
Type: in vivo
condition set: female, C57, mouse, brain, iv, 0.037 MBq, total radioactivity, 24 h post-injection; read-out: Brain uptake
readout kind: tissue uptake at 24 h (%ID/g)
State the answer as a number, implicitly in %ID/g.

Prompt: State the recorded tissue uptake at 24 h for this entry: CCCC[C@H](NC(=O)CN1CCN(CC(=O)O)CCN(CC(=O)O)CCN(CC(=O)O)CC1)C(=O)N[C@H]1CC(=O)NCCCC[C@@H](C(N)=O)NC(=O)[C@H](Cc2c[nH]c3ccccc23)NC(=O)[C@H](CCCNC(=N)N)NC(=O)[C@@H](Cc2ccccc2)NC(=O)[C@H](Cc2c[nH]cn2)NC1=O [^111In-DOTA-Nle-CycMSHhex, metal not drawn]
Completion: 0.03

Cited source: patent US9493537B2
